Parameter: EC50. Scope: all listed entries.
- Tested on: DENV-1 strain TC974#666
- measurement notes: Tetravalent RT-qPCR assay, serotype 1
- Format: cell-based
- experimental setup: Dengue virus, DENV1, Vero, 72 h
All answers are understood in nM, so give the number only.

These recorded examples may help you get a feel for the data.
COc1cc(NC(C(=O)N2CCc3ccc(OC(F)(F)F)cc32)c2ccc(Cl)cc2F)cc(OCCCC(=O)O)c1 (single isomer, unassigned) [Compound 10A]	0.16
COc1cc(NC(C(=O)N2CCc3cc(OC)c(C(F)(F)F)cc32)c2ccc(Cl)cc2F)cc(OCCCC(=O)O)c1 (single isomer, unassigned) [Compound 11B]	0.67

Next compound, EC50 to be filled in.
# get_value(readout= EC50, system= DENV-1 strain TC974#666) for COc1cc(NC(C(=O)N2CCc3ccc(C(F)(F)F)cc32)c2ccc(F)cc2)cc(OCCCC(=O)O)c1 (single isomer, unassigned) 0.28

----------
Parameter: CC50. Scope: all listed entries.
- measurement notes: in vitro
- experimental setup: African green monkey
All answers are understood in µM, so give the number only.

COc1cc(NC(C(=O)N2CCc3cc(OC)c(C(F)(F)F)cc32)c2ccc(Cl)cc2)cc(OCCCC(=O)O)c1 (racemic) [Compound 5]	13
COc1cc(NC(C(=O)N2CCc3ccc(OC(F)(F)F)cc32)c2ccc(Cl)cc2)cc(OCCCC(=O)O)c1 (single isomer, unassigned) [Compound 4A]	10
COc1cc(NC(C(=O)N2CCc3ccc(OC(F)(F)F)cc32)c2ccc(Cl)cc2F)cc(OCCCC(=O)O)c1 (single isomer, unassigned) [Compound 10A]	13

Would you mind telling me what CC50 value was observed for COc1cc(NC(C(=O)N2CCc3ccc(C(F)(F)F)cc32)c2ccc(Cl)cc2)cc(OCCCC(=O)O)c1 (single isomer, unassigned) [Compound 3A] ? 11
